Attribution: ChEMBL document CHEMBL3132846

# System: MCF7
# MEASUREMENT NOTES: Cytotoxicity against human MCF7 cells after 48 hrs by MTT assay
# Type: functional, cell-based
# MEASUREMENT SETUP: MCF7, 48 h
Catalogue of IC50 values

Field: example entries. Status: answers known.
COc1cc(/C=N/NC(=O)Cc2cccc3c(=O)c4ccc(C)c(C)c4oc23)cc(OC)c1OC; > 100 µM
Cc1ccc2c(=O)c3cccc(CC(=O)N/N=C/c4ccccc4O)c3oc2c1C; > 100 µM
CCOC(=O)CNC(=O)Cc1cccc2c(=O)c3ccc(C)c(C)c3oc12; 46.4 µM
Cc1ccc2c(=O)c3cccc(CC(=O)O)c3oc2c1C [VADIMEZAN]; > 100 µM
Cc1ccc2c(=O)c3cccc(CC(=O)N/N=C/c4ccc5c(c4)OCO5)c3oc2c1C; > 100 µM

Problem: Need IC50, item `Cc1ccc2c(=O)c3cccc(CC(=O)Nc4ccc(F)c(Cl)c4)c3oc2c1C`
Solution: > 100 µM

Problem: Need IC50, item `COc1ccc(/C=N/NC(=O)Cc2cccc3c(=O)c4ccc(C)c(C)c4oc23)cc1O`
Solution: > 100 µM

###

# Test system: HUVEC
# MEASUREMENT NOTES: Cytotoxicity against HUVEC assessed as mitochondrial metabolism after 48 hrs by MTT assay
# Type: cell-based, Homo sapiens
# MEASUREMENT SETUP: Homo sapiens, HUVEC
pIC50: −log10 of the molar value.
Catalogue of pIC50 values

Field: example entries. Status: answers known.
Cc1ccc2c(=O)c3cccc(CC(=O)Nc4ccccc4)c3oc2c1C; < 4.70
Cc1ccc2c(=O)c3cccc(CC(=O)N/N=C/c4cc(Cl)ccc4O)c3oc2c1C; < 4.70

Now let's try a different one.
Problem: Need pIC50, item `Cc1ccc2c(=O)c3cccc(CC(=O)O)c3oc2c1C`
Solution: < 4.70

###

# System: A549
# MEASUREMENT NOTES: Cytotoxicity against human A549 cells after 48 hrs by MTT assay
# Format: functional, cell-based
# MEASUREMENT SETUP: A549, 48 h
PROPERTY NAME: IC50 (µM)
Give your result in µM as a bare value.

CCOC(=O)CNC(=O)Cc1cccc2c(=O)c3ccc(C)c(C)c3oc12; 42.9
CCCCNC(=O)Cc1cccc2c(=O)c3ccc(C)c(C)c3oc12; 46.9
Cc1ccc2c(=O)c3cccc(CC(=O)Nc4cccc(Cl)c4)c3oc2c1C; 10.8
COc1cc(/C=N/NC(=O)Cc2cccc3c(=O)c4ccc(C)c(C)c4oc23)cc(OC)c1OC; 15.7
Cc1ccc2c(=O)c3cccc(CC(=O)Nc4ccccc4)c3oc2c1C; 77.6

Problem: Need IC50, item `CCOC(=O)c1ccc(NC(=O)Cc2cccc3c(=O)c4ccc(C)c(C)c4oc23)cc1`
Solution: 39.6

Problem: Need IC50, item `Cc1ccc2c(=O)c3cccc(CC(=O)Nc4ccc(Cl)cc4)c3oc2c1C`
Solution: 9.39

###

# Test system: MCF7
# MEASUREMENT NOTES: Cytotoxicity against human MCF7 cells after 48 hrs by MTT assay
# Format: functional, cell-based
# MEASUREMENT SETUP: MCF7, 48 h
pIC50: −log10 of the molar value.
PROPERTY NAME: pIC50

Problem: Need pIC50, item `Cc1ccc2c(=O)c3cccc(CC(=O)Nc4ccc(Cl)c(Cl)c4)c3oc2c1C`
Solution: < 4.00

Problem: Need pIC50, item `Cc1ccc2c(=O)c3cccc(CC(=O)Nc4ccc(Cl)cn4)c3oc2c1C`
Solution: 4.02

Problem: Need pIC50, item `CCOC(=O)c1ccc(NC(=O)Cc2cccc3c(=O)c4ccc(C)c(C)c4oc23)cc1`
Solution: < 4.00
